experimental system: Neuropeptide Y receptor type 1 (Homo sapiens)
Sequence (P25929 whole entry): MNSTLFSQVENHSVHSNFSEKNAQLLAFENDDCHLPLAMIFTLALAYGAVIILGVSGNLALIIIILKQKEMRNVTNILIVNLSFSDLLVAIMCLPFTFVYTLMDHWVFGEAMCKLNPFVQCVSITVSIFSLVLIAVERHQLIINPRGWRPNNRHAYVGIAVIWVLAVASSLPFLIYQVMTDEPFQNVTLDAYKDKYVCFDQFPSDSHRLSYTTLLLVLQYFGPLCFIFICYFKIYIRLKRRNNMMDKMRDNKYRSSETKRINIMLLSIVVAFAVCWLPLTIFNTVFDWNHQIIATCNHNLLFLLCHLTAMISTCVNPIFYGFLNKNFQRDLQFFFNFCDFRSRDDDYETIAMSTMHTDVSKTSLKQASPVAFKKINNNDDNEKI
assay: Displacement of [3H]propionyl-pNPY from neuropeptide Y1 receptor in human SK-N-MC cells
Type: cell-based
Measured Ki, listed per entry.
endpoint name: Ki (µM)

[[record]]
molecule = "COC(=O)NC(N)=NCCC[C@@H](NC(=O)C(c1ccccc1)c1ccccc1)C(=O)NCc1ccc(O)cc1"
reported_value = 0.033

[[record]]
molecule = "CC(=O)/N=C(/N)NCCC[C@@H](NC(=O)C(c1ccccc1)c1ccccc1)C(=O)NCc1ccc(O)cc1"
reported_value = 0.012

[[record]]
molecule = "CCC/N=C(/N)NCCC[C@@H](NC(=O)C(c1ccccc1)c1ccccc1)C(=O)NCc1ccc(O)cc1"
reported_value = 0.027

[[record]]
molecule = "CCOC(=O)NC(N)=NCCC[C@@H](NC(=O)C(c1ccccc1)c1ccccc1)C(=O)NCc1ccc(O)cc1"
reported_value = 0.0045

